- test method notes: basal 3T3-L1 adipocyte mitochondrial potential changes, profiling panel, cell-based, JC-1 fluorescence, 3T3-L1 adipocytes, 24 h, 100 nL compound (AID 1168); note: test concentration not given here
- condition details: JC-1 mitochondrial fluorescence, higher = more signal, called active from +8 up or from −8 down
Tick 1 if z-score is -0.2 or greater. Tick -1 if z-score is less than -0.2.

Please review the entries below; each comes with its answer.
molecule: CC(=O)OC[C@H]1O[C@@H](ON=C(C)CCC(=O)OC[C@H]2O[C@H](C#Cc3ccccc3)C=C[C@@H]2Oc2ccc(C)cc2)[C@H](OC(C)=O)[C@@H](OC(C)=O)[C@@H]1OC(C)=O
category label: -1
--
molecule: CC(C)=NO[C@H](C)c1cn([C@@H]2COC[C@H]2O)nn1
category label: 1

Next item in the queue.
Decide: is the reported value of z-score for CC(CCN1CCc2nc(-c3ccccc3)c(-c3ccccc3)cc2C1)=NOC(C)CN1CCCc2nc(C)c(C)cc21 (centres undefined) equal to or greater than -0.2? -1

====

- tested target: Dickkopf-related protein 1 (Homo sapiens) (UniProt O94907)
- Sequence (O94907 whole entry, looked up): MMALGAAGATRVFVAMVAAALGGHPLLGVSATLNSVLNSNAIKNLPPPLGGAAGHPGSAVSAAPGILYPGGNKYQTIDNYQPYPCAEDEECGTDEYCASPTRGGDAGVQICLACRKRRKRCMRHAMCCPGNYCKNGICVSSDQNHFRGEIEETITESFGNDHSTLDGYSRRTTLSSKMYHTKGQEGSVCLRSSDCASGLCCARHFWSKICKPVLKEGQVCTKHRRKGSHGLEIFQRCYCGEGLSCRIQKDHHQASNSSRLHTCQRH
- test method notes: DKK1 binders on small-molecule microarrays, primary screen, biochemical, small-molecule microarray, 635 nm fluorescence scan (AID 1106);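 note: score merges emission near 667 nm with signal to noise over three replicate slides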
- condition details: DKK1 binding, higher = more signal
Listed here: items and their measured composite z-score.
When you answer, write just the number.

Before answering, review these 3 worked examples.
molecule: C#CCCCON=C1C[C@@H](O)[C@@H](O)[C@@H]2[C@@H]3C(=O)N(C4CCCCC4)C(=O)[C@@H]3CC[C@@H]12
reported: 0.692
//
molecule: COC(=O)[C@H](C)NC(=O)CCC1CC(OC(=O)NCc2cccc3ccccc23)CC2(CCCC(COC(=O)NCc3ccccc3)O2)O1 (some centres undefined)
reported: 0.667
//
molecule: C[C@@H]1CC[C@H]2C(=O)OC(Cc3ccccc3)CN2[C@H]1c1ccc(Br)cc1 (some centres undefined)
reported: -0.0094

--- query ---
composite z-score lookup needed for `CC(CCN1CCCCc2nc(C)c(C)cc21)=NO[C@H](C)c1cn([C@@H]2COC[C@H]2O)nn1` , thanks. 2.15

====

- Test system: Neuregulin-1 EGF-like domain
- test method notes: binders of neuregulin-1 EGF-like domain, primary screen, biochemical, small-molecule microarray, 635 nm fluorescence (AID 1081);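 note: binding of the protein to compounds printed on small-molecule microarray slides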
- condition details: small-molecule microarray binding, higher = more signal
Tick Y if composite z-score is -0.3 or greater. Tick N if composite z-score is less than -0.3.

Please review the entries below; each comes with its answer.
compound: C=CCOCC1CN2[C@@H](CC[C@@H](C)[C@@H]2c2ccc(Br)cc2)C(=O)O1 (stereo partly specified)
category label: N
--
compound: COCC#Cc1ccc([C@@H]2N[C@H](C(=O)O)CC[C@H]2C)cc1
category label: N
--
compound: CCN1C(=O)[C@H]2[C@H]3[C@H](O)[C@H](O)CC(=NOC(C)CN4CCCc5nc(C)c(C)cc54)[C@@H]3CC[C@H]2C1=O (stereo partly specified)
category label: Y
--
compound: COC(OC)[C@@H](C)[C@H](OC)[C@@H](C)[C@H](OC)c1ccccc1
category label: N
--
compound: C=CC[C@@H]1C=C[C@H](ON=CC[C@@H]2C=C[C@H](OC(C)=O)[C@@H](COC(C)=O)O2)[C@@H](CO)O1
category label: Y

Decide: is the reported value of composite z-score for `COC(=O)CC=C[C@@H](C)[C@@H](C=NOC[C@@H](O)[C@H]1O[C@@H]2OC(C)(C)O[C@@H]2[C@H]1O)OC` equal to or greater than -0.3? Y

How about `CCc1cc2c(nc1CC)CCN(CCC(C)=NOC[C@@H](C)[C@H](OCc1ccccc1)C(C)C)C2` ? N

Measured values drawn from PubChem BioAssay for this set.
